- TESTED_TARGET: Cannabinoid receptor 1 (Homo sapiens)
- Sequence (P21554 whole entry): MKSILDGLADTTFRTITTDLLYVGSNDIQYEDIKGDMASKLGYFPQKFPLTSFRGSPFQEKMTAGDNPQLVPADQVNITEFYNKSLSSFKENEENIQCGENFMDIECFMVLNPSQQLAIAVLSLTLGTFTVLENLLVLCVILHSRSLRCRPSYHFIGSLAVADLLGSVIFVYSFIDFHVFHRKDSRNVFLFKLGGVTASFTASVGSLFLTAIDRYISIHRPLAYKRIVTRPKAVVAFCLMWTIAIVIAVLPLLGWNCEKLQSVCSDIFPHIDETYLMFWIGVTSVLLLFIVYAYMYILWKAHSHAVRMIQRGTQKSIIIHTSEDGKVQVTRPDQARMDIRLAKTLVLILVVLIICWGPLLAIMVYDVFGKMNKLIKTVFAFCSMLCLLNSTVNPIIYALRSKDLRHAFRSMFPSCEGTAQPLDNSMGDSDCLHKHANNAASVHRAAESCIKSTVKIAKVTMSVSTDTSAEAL
- TEST_NAME: Agonist activity at human cloned CB1 receptor expressed in CHO cells assessed as inhibition of forskolin-induced cAMP accumulation
QUANTITY_KIND: pEC50
In plain terms, pEC50 is the concentration in mol/L turned into minus its base-10 logarithm.

Query :: For FC1CCN(Cc2cccc(-c3nc(-c4cccc(Cl)c4)c[nH]3)c2)CC1 , what is its reported pEC50?
Result :: 6.89

Query :: Same read-out for COc1ccc(F)c(-c2c[nH]c(-c3cccc(CN4CCC(F)(F)CC4)c3)n2)c1 ?
Result :: 7.60

Query :: Same read-out for COc1ccc(F)c(-c2c[nH]c(-c3cccc(CN4CCC(F)CC4)c3)n2)c1 ?
Result :: 7.06

Query :: Same read-out for Clc1cccc(-c2c[nH]c(-c3cccc(CN4CCCCC4)c3)n2)c1 ?
Result :: 5.98

Query :: Same read-out for Clc1cccc(-c2c[nH]c(-c3cccc(CN4CCCCC4)c3)n2)c1Cl ?
Result :: 4.90

Query :: Same read-out for COc1ccc(-c2c[nH]c(-c3cccc(CN4CCC(F)(F)CC4)c3)n2)c(F)c1 ?
Result :: 7.41
